# tested_system: HCV NS3-4A serine protease (full-length NS3-4A protein) (Hepatitis C virus genotype 1a (isolate 1) (HCV))
# Sequence (P26664 1027-1657): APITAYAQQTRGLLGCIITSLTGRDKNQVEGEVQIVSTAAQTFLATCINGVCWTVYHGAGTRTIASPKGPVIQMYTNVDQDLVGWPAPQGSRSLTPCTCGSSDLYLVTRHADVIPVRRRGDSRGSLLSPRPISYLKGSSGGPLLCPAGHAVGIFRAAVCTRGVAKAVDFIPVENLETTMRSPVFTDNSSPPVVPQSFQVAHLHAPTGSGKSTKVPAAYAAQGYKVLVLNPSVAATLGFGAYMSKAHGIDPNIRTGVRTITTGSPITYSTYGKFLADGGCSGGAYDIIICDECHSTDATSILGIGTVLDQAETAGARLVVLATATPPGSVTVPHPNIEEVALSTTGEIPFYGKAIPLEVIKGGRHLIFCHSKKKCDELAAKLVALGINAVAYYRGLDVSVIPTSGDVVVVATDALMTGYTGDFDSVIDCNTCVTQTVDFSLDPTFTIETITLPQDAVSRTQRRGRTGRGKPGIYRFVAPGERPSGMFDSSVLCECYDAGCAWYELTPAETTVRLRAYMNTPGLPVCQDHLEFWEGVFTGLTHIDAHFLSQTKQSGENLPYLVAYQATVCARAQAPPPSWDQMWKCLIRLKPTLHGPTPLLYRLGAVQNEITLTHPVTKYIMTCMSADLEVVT
# Sequence (P26664 1658-1711 partner): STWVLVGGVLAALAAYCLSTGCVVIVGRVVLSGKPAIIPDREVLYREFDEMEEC
# experiment: HCV NS3-4A protease assay
# run_parameters: strain HCV-1, fluorogenic peptide substrate, read-out: Protease assay Ex. 12 IC50
measured_attribute: IC50 (µM)
Express it in µM; write the number only.

C=C[C@@H]1C[C@]1(NC(=O)[C@@H]1C[C@@]2(CN1C(=O)[C@@H](NC(=O)[C@@H](NC(=O)[C@@H]1CCCCN1CCF)C1CCCCC1)C(C)(C)C)C(C)(C)C21CCC1)C(=O)NS(=O)(=O)N1CCCC1 : 0.015
CCCN(C)S(=O)(=O)NC(=O)[C@@]1(NC(=O)[C@@H]2C[C@@]3(CN2C(=O)[C@@H](NC(=O)[C@@H](NC(=O)[C@@H]2CCCCN2C(C)C)C2CCCCC2)C(C)(C)C)C(C)(C)C32CCC2)C[C@H]1CC : 0.01
C=C[C@@H]1C[C@]1(NC(=O)[C@@H]1C[C@@]2(CN1C(=O)[C@@H](NC(=O)[C@@H](NC(=O)c1cc3ccccc3o1)C1CCCCC1)C(C)(C)C)C(C)(C)C21CCC1)C(=O)NS(=O)(=O)N1CCCC1 : 0.055

API: the following record is the query input.
Query: Data request, read-out IC50, for `C=C[C@@H]1C[C@]1(NC(=O)[C@@H]1C[C@@]2(CN1C(=O)[C@@H](NC(=O)[C@@H](NC(=O)[C@@H]1CCCCN1CCOC)C1CCCCC1)C(C)(C)C)C(C)(C)C21CCC1)C(=O)NS(=O)(=O)N1CCCC1`
Result: 0.0035
